# System name: Delta-type opioid receptor (Rattus norvegicus)
# Sequence (P33533 whole entry): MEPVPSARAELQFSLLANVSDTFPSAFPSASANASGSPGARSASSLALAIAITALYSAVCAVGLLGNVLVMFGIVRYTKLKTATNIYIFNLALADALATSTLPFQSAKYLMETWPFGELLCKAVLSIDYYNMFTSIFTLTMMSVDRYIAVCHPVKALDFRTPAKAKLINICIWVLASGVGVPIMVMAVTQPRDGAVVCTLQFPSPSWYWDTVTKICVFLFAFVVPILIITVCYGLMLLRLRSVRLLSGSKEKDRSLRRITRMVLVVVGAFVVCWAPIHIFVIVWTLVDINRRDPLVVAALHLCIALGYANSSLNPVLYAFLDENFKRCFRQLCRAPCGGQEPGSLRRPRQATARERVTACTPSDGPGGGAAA
# Procedure text: Displacement of [3H]DPDPE from delta opioid receptor in rat membranes after 120 mins by scintillation counting analysis

{"columns": ["Compound", "Ki [nM]"],
 "data": [
  ["COC1Cc2ccccc2[C@]2(CC[C@H](N(C)CC3CCCCC3)CC2)O1 (stereo not given in full)", 364],
  ["COC1Cc2ccccc2[C@]2(CC[C@@H](N(C)Cc3ccccc3)CC2)O1 (stereo not given in full)", 371],
  ["COC1O[C@]2(CC[C@@H](N(C)CC3CCCCC3)CC2)c2ccccc21 (stereo not given in full)", 559],
  ["CCOC1Cc2ccccc2[C@]2(CC[C@H](N(C)CC3CCCCC3)CC2)O1 (stereo not given in full)", 356],
  ["c1ccc(CN[C@H]2CC[C@@]3(CC2)OCCc2ccccc23)cc1", 14],
  ["C1=Cc2ccccc2[C@]2(CC[C@H](NCC3CCCCC3)CC2)O1", 209],
  ["c1ccc2c(c1)CCO[C@]21CC[C@H](NCC2CCCCC2)CC1", 178],
  ["CCOC1Cc2ccccc2[C@]2(CC[C@H](NCC3CCCCC3)CC2)O1 (stereo not given in full)", 432],
  ["CN(CC1CCCCC1)[C@H]1CC[C@]2(CC1)OCCc1ccccc12", 565],
  ["COC1Cc2ccccc2[C@]2(CC[C@H](N(C)Cc3ccccc3)CC2)O1 (stereo not given in full)", 1300]
]}

* * *

# System name: Sigma non-opioid intracellular receptor 1 (Cavia porcellus)
# Sequence (Q60492 whole entry): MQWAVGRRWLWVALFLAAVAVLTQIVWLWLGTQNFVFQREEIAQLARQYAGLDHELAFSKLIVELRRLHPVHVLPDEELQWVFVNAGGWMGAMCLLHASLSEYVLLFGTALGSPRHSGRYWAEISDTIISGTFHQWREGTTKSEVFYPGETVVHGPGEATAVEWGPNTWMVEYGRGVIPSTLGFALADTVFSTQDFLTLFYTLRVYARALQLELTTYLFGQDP
# Procedure text: Displacement of [3H](+)-pentazocine from sigma 1 receptor in guinea pig brain cortex membranes after 120 mins by scintillation counting analysis

{"columns": ["Compound", "Ki [nM]"],
 "data": [
  ["COC1O[C@]2(CC[C@H](N(C)CC3CCCCC3)CC2)c2ccccc21 (stereo partly specified)", 8],
  ["CN(CC1CCCCC1)[C@H]1CC[C@@]2(CC1)OCCc1ccccc12", 8],
  ["CN(CC1CCCCC1)[C@H]1CC[C@]2(CC1)OCCc1ccccc12", 3.1],
  ["CN(CC1CCCCC1)[C@H]1CC[C@@]2(CC1)OC=Cc1ccccc12", 4.9],
  ["COC1Cc2ccccc2[C@]2(CC[C@@H](N(C)CC3CCCCC3)CC2)O1 (stereo partly specified)", 3.1],
  ["c1ccc(CN[C@H]2CC[C@@]3(CC2)OCCc2ccccc23)cc1", 256],
  ["C1=Cc2ccccc2[C@]2(CC[C@H](NCC3CCCCC3)CC2)O1", 5.7],
  ["CCOC1Cc2ccccc2[C@]2(CC[C@H](N(C)CC3CCCCC3)CC2)O1 (stereo partly specified)", 8.1],
  ["c1ccc2c(c1)CCO[C@]21CC[C@@H](NCC2CCCCC2)CC1", 18],
  ["c1ccc2c(c1)CCO[C@]21CC[C@H](NCC2CCCCC2)CC1", 15],
  ["COC1O[C@]2(CC[C@H](NCc3ccccc3)CC2)c2ccccc21 (stereo partly specified)", 262]
]}

* * *

# System name: 5-hydroxytryptamine receptor 2B (Homo sapiens) (UniProt P41595)
# Sequence (P41595 whole entry): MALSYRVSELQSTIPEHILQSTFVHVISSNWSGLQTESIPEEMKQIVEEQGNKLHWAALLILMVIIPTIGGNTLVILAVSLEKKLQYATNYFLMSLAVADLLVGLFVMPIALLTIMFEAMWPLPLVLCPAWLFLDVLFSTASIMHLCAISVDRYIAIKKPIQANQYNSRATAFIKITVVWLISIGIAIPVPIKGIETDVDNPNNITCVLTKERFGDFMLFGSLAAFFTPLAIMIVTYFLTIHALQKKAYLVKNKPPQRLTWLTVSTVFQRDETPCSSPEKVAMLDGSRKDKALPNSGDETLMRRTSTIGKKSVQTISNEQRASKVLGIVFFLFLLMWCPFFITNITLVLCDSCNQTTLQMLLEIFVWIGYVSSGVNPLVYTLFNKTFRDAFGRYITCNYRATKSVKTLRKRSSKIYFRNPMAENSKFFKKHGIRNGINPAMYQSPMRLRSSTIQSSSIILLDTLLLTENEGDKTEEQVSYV
# Procedure text: Binding affinity to 5-HT2BR (unknown origin) at 1 uM relative to control
Calls of active or inactive are those of the source. The calls are words filed in the database; no cut-off is given here.

{"columns": ["Compound", "System name", "Activity"],
 "data": [
  ["COC1Cc2ccccc2[C@]2(CC[C@H](N(C)Cc3ccccc3)CC2)O1 (some centres undefined)", "5-hydroxytryptamine receptor 2B (Homo sapiens) (UniProt P41595)", "inactive"],
  ["COC1Cc2ccccc2[C@]2(CC[C@H](N(C)CC3CCCCC3)CC2)O1 (some centres undefined)", "5-hydroxytryptamine receptor 2B (Homo sapiens) (UniProt P41595)", "62%"],
  ["COC1Cc2ccccc2[C@]2(CC[C@@H](N(C)CC3CCCCC3)CC2)O1 (some centres undefined)", "5-hydroxytryptamine receptor 2B (Homo sapiens) (UniProt P41595)", "inactive"],
  ["COC1Cc2ccccc2[C@]2(CC[C@@H](N(C)Cc3ccccc3)CC2)O1 (some centres undefined)", "5-hydroxytryptamine receptor 2B (Homo sapiens) (UniProt P41595)", "inactive"]
]}
